- System: HOP-92 NSCLC
- Test Name: NCI tumour cell line growth inhibition, 48 h
Catalogue of TGI values

Compound | Measured Target | TGI
CNc1nc2c(C)ccc3nc(N(C)C)nc-3c2n1C | HOP-92 NSCLC | > 10 µM
CCOC(=O)NC(Nc1cccc(F)c1)(C(F)(F)F)C(F)(F)F | HOP-92 NSCLC | > 100 µM
O=C(CCl)Nc1ccccc1SCc1cc(Cl)cc2c1OCOC2 | HOP-92 NSCLC | 17.9 µM
COc1cccc2c1C(=O)c1c(O)c3c(c(O)c1C2=O)CC(O)(C(C)=O)CC3OC1CC([N+](C)(C)C)C(O)C(C)O1 (stereo not drawn) | HOP-92 NSCLC | > 100 µM
O=C1CC2(CCCc3sccc32)C(=O)N1 (stereo not drawn) | HOP-92 NSCLC | > 100 µM
COc1ccccc1-c1n[nH]c(-c2ccccc2O)n1 | HOP-92 NSCLC | > 100 µM

// returns reported TGI for input `N.N.NCCCCN.O=C([O-])CC(=O)[O-].O=C([O-])CC(=O)[O-].[Pt+4].[Pt+4]`
> 100 µM

Also need `Clc1ccc(Nc2ccnc(NCCNc3ccnc4cc(Cl)ccc34)n2)cc1` , thanks.
2 µM

----------
Catalogue of TGI values
- Test system: KM20L2 colon
- Test Name: NCI tumour cell line growth inhibition, 48 h

// known answers, use as guide
Chemical String | Reading
O=C(Nc1ccccc1)O/N=C1/CCCC/C1=C\c1ccccc1 | 43.2 µM
O=C(c1ccccc1)c1ccc2cccc(O)c2n1 | > 100 µM

Now consider the entry below.
// returns reported TGI for input `Brc1nc2c3ccccc3ncn2c1Br`
> 100 µM

----------
Catalogue of TGI values
- Tested on: CCRF-CEM leukemia
- Test Name: NCI tumour cell line growth inhibition, 48 h

Request: TGI, test system CCRF-CEM leukemia, entry CCOC(=O)N(C)CCC1CC=CC(=O)C1c1cccc(OC)c1OC (stereo not given)
35.7 µM

Also need `O=NN(CCCl)C(=O)NCc1ccc[n+]([O-])c1` , thanks.
> 100 µM

Also need COC(=O)C1=C(O)C(C(=O)OC)[C@]2(O)[C@H](C(=O)OC)[C@H]1C[C@@H](c1ccc(O)cc1)[C@H]2C(=O)OC (stereo not given in full) , thanks.
> 100 µM

----------
Catalogue of log10(TGI) values
- Test system: 786-0 renal
- Test Name: NCI tumour cell line growth inhibition, 48 h
// do not treat as linear: log10 of TGI, unit µM

// known answers, use as guide
Compound | Endpoint | Reading
CCOC(=O)c1sc2ncn(Cc3cccc(Cl)c3)c(=O)c2c1C | log10(TGI) | 1.41
COC(=O)/C=C1\SC(=Nc2ccc(C(F)(F)F)cc2)N(CCc2c[nH]c3ccccc23)C1=O | log10(TGI) | 0.47
CC(C)/C(Cl)=N/OC(NC(=O)Nc1ccc(Cl)c(Cl)c1)(C(F)(F)F)C(F)(F)F | log10(TGI) | 1.35
Cc1ccc2c(/C=C/C(=O)c3cc(CN4CCOCC4)c(O)c4nc(C)ccc34)cc(CN3CCOCC3)c(O)c2n1 | log10(TGI) | 0.74

Now consider the entry below.
Request: log10(TGI), test system 786-0 renal, entry CCCOP1(=O)C=C(C)C(Cl)=C(C)C1 (stereo unspecified)
1.56
